The values you see were collected from patent US9255100B2.

Target: N-terminally GST-tagged human full length recombinant Mps-1 kinase (Homo sapiens, UniProt P33981)
Construct: N-terminally GST-tagged human full length recombinant Mps-1 kinase; purchased Invitrogen, Karslruhe, Germany PV4071
Sequence (P33981 whole entry): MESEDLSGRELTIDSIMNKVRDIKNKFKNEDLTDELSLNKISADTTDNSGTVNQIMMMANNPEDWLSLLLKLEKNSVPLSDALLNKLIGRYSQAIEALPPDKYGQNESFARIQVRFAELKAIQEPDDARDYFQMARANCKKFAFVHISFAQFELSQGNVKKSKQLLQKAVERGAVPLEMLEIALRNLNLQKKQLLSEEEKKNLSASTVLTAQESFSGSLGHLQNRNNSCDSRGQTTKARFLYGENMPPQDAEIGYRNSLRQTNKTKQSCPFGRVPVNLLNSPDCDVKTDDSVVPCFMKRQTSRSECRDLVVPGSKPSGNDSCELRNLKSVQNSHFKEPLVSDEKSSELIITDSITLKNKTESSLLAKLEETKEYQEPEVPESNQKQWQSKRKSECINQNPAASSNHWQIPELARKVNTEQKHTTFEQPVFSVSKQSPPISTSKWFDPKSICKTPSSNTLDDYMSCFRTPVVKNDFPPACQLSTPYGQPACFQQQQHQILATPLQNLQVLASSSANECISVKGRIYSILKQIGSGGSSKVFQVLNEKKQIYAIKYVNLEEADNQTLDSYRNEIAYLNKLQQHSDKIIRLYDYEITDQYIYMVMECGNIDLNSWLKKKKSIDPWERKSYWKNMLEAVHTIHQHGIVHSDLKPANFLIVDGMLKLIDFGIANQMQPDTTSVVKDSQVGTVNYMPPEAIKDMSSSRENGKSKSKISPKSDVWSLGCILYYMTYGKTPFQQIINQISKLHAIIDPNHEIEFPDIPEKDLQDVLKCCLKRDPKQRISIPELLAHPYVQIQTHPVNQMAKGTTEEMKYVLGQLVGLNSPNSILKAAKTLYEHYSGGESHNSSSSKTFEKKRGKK
Assay: Mps-1 kinase assay (TR-FRET)
Type: biochemical
Settings: Mps1 IC50 [nM], 10 μM ATP, 1 μM peptide substrate, 60 min at 22° C.
Method: The human kinase Mps-1 phosphorylates a biotinylated substrate peptide. Detection of the phosphorylated product is achieved by time-resolved fluorescence resonance energy transfer (TR-FRET) from Europium-labelled anti-phospho-Serine/Threonine antibody as donor to streptavidin labelled with cross-linked allophycocyanin (SA-XLent) as acceptor. Compounds are tested for their inhibition of the kinase activity. […]
Parameter class (string): assigned from measured IC50. Ranges: low: < 0.4 nM; mid: ≥ 0.4 nM and < 3 nM; high: ≥ 3 nM

Field: example entries. Status: answers known.
[[record]]
molecule = "Cc1cc(-c2cnc3c(NCCC(F)(F)F)cc(Sc4cccc(F)c4)nn23)ccc1C(=O)NC1CC1"
assigned_class = "mid"

[[record]]
molecule = "CNC(=O)c1ccc(-c2cnc3c(NCCOC)cc(Oc4ccc(F)c(F)c4)nn23)cc1C"
assigned_class = "high"

[[record]]
molecule = "Cc1ccc(F)cc1Oc1cc(NCCC(F)(F)F)c2ncc(-c3ccc(C(=O)NC4CC4)c(C)c3)n2n1"
assigned_class = "low"

[[record]]
molecule = "Cc1cc(-c2cnc3c(NCC(C)(C)O)cc(Nc4ccccc4)nn23)ccc1C(=O)NC1CC1"
assigned_class = "mid"

[[record]]
molecule = "Cc1cc(-c2cnc3c(NCCC(F)(F)F)cc(Sc4ccc(F)cc4N)nn23)ccc1C(=O)NC1CC1"
assigned_class = "low"

[[record]]
molecule = "CC(C)CNc1cc(Cl)nn2c(-c3ccc(C(=O)NC(C)C)cc3)cnc12"
assigned_class = "high"

[[record]]
molecule = "Cc1cc(-c2cnc3c(NCCC(=O)N(C)C)cc(Oc4cccc(F)c4)nn23)ccc1C(=O)NC1CC1"
assigned_class = "low"

[[record]]
molecule = "Cc1cc(-c2cnc3c(NCC(C)(C)O)cc(Sc4ccc(C(F)(F)F)cc4)nn23)ccc1C(=O)NC1CC1"
assigned_class = "high"


Input: Assign a category based on measured IC50 for Cc1cc(-c2cnc3c(NCC(C)(C)O)cc(Oc4cccc(OC(C)C)c4)nn23)ccc1C(=O)NC1CC1 and give only the class name.
Output: low

Input: Assign a category based on measured IC50 for Cn1nccc1-c1cc(NC[C@H](O)[C@H]2COC(C)(C)O2)c2ncc(-c3ccc(C(=O)NC4CC4)cc3)n2n1 and give only the class name.
Output: high

Input: Assign a category based on measured IC50 for Cc1cc(-c2cnc3c(NCC(C)(C)O)cc(-c4cnn(C)c4)nn23)ccc1C(=O)NC1CC1 and give only the class name.
Output: high

Input: Assign a category based on measured IC50 for CC(=O)Nc1ccncc1Oc1cc(NCCC(F)(F)F)c2ncc(-c3ccc(C(=O)NC4CC4)c(C)c3)n2n1 and give only the class name.
Output: high

Input: Assign a category based on measured IC50 for Cc1cc(-c2cnc3c(NCCC(F)(F)F)cc(Oc4cccc(C(C)C)c4O)nn23)ccc1C(=O)NC1CC1 and give only the class name.
Output: mid

Input: Assign a category based on measured IC50 for Cc1cc(-c2cnc3c(NCC(C)(C)O)cc(Oc4ccc(N5CCNCC5)cc4)nn23)ccc1C(=O)NC1CC1 and give only the class name.
Output: high

Input: Assign a category based on measured IC50 for Cc1cccc(-c2cc(NCC(C)C)c3ncc(-c4ccc(C(=O)NC5CC5)cc4)n3n2)c1 and give only the class name.
Output: high

Input: Assign a category based on measured IC50 for CNC(=O)c1ccc(-c2cnc3c(NCCC(F)(F)F)cc(Oc4cc(F)ccc4C)nn23)cc1C and give only the class name.
Output: mid

====

Biological target: N-terminally GST-tagged human full length recombinant Mps-1 kinase (Homo sapiens)
Construct: N-terminally GST-tagged human full length recombinant Mps-1 kinase; purchased Invitrogen, Karslruhe, Germany PV4071
Test: Mps-1 kinase assay (TR-FRET)
Assay type: biochemical
Settings: Mps1 IC50 [nM], 10 μM ATP, 1 μM peptide substrate, 60 min at 22° C.
endpoint name: log10 of IC50 (log10 of the value in nM)
A value of 2 here means IC50 of 100 in nM, since values are log10.

Below are worked cases with known answers.
[[record]]
compound = "CC(C)CNc1cc(-c2ccc3c(c2)OCO3)nn2c(-c3ccc(C(=O)NC4CC4)cc3)cnc12 [Example 136]"
target_of_assay = "N-terminally GST-tagged human full length recombinant Mps-1 kinase (Homo sapiens)"
endpoint_name = "log10 of IC50"
numeric_result = 0.60

[[record]]
compound = "CSc1cccc(Oc2cc(NCC(C)(C)O)c3ncc(-c4ccc(C(=O)NC5CC5)c(C)c4)n3n2)c1F [Example 458]"
target_of_assay = "N-terminally GST-tagged human full length recombinant Mps-1 kinase (Homo sapiens)"
endpoint_name = "log10 of IC50"
numeric_result = 0.04

[[record]]
compound = "Cc1cc(-c2cnc3c(NCC(C)(C)O)cc(-c4cccn4C)nn23)ccc1C(=O)NC1CC1 [Example 161]"
target_of_assay = "N-terminally GST-tagged human full length recombinant Mps-1 kinase (Homo sapiens)"
endpoint_name = "log10 of IC50"
numeric_result = 0.79

[[record]]
compound = "Cc1cc(-c2cnc3c(NCCC(F)(F)F)cc(Oc4cccc5ncccc45)nn23)ccc1C(=O)NC1CC1 [Example 170]"
target_of_assay = "N-terminally GST-tagged human full length recombinant Mps-1 kinase (Homo sapiens)"
endpoint_name = "log10 of IC50"
numeric_result = -0.15


Lab note: measured log10 of IC50 of Cc1cc(-c2cnc3c(NCCC(F)(F)F)cc(Oc4cncc(F)c4)nn23)ccc1C(=O)NC1CC1 [Example 464] was -1.00

Lab note: measured log10 of IC50 of CC(C)CNc1cc(-c2ccc(C(F)(F)F)cc2)nn2c(-c3ccc(C(=O)NC4CC4)cc3)cnc12 [Example 123] was 0.88

====

Target: N-terminally GST-tagged human full length recombinant Mps-1 kinase (Homo sapiens, UniProt P33981)
Construct: N-terminally GST-tagged human full length recombinant Mps-1 kinase; purchased Invitrogen, Karslruhe, Germany PV4071
Assay: Mps-1 kinase assay (TR-FRET)
Type: biochemical
Conditions: Mps1 IC50 [nM], 10 μM ATP, 1 μM peptide substrate, 60 min at 22° C.
endpoint name: IC50

Below are worked cases with known answers.
[[record]]
compound = "Cc1cc(-c2cnc3c(NCC(C)(C)O)cc(Sc4cccc(O)c4)nn23)ccc1C(=O)NC1CC1 [Example 61A]"
endpoint_name = "IC50"
result = "0.2 nM"

[[record]]
compound = "CC(C)CNc1cc(Cl)nn2c(-c3ccc4c(NC5CC5)noc4c3)cnc12"
endpoint_name = "IC50"
result = "290 nM"

[[record]]
compound = "Cc1cc(F)cc(Oc2cc(NCC3CCSCC3)c3ncc(-c4ccc(C(=O)NC5CC5)c(C)c4)n3n2)c1"
endpoint_name = "IC50"
result = "0.4 nM"


Lab note: measured IC50 of Cc1cc(-c2cnc3c(NCCC(F)(F)F)cc(SCCO)nn23)ccc1C(=O)NC1CC1 was < 1 nM

Lab note: measured IC50 of CC(C)CNc1cc(-c2ccc(NC(=O)N(C)C)cc2)nn2c(-c3ccc(C(=O)NC4CC4)cc3)cnc12 was 3.7 nM

Lab note: measured IC50 of Cc1cc(-c2cnc3c(NCCC(F)(F)F)cc(Nc4cccc(C(C)C)c4)nn23)ccc1C(=O)NC1CC1 was 0.6 nM

Lab note: measured IC50 of Cc1cc(-c2cnc3c(NCC(C)(C)O)cc(Oc4ccncc4)nn23)ccc1C(=O)NC1CC1 was 26.8 nM

Lab note: measured IC50 of Cc1cc(-c2cnc3c(NCC(C)(C)O)cc(Nc4ccc(CCO)cc4)nn23)ccc1C(=O)NC1CC1 was 1.5 nM

Lab note: measured IC50 of Cc1cc(-c2cnc3c(NCC4CNC4)cc(Oc4cncc(F)c4)nn23)ccc1C(=O)NC1CC1 was 1.1 nM

Lab note: measured IC50 of CSc1cc(NCC(C)C)c2ncc(-c3ccc(C(=O)NC4CC4)c(C)c3)n2n1 was 2.7 nM

Lab note: measured IC50 of CCNC(=O)c1ccc(-c2cnc3c(NCCOC)cc(Oc4ccc(OC)cc4F)nn23)cc1C was 3.9 nM

Lab note: measured IC50 of Cc1cc(-c2cnc3c(NCC(C)C)cc(-c4cncc(C#N)c4)nn23)ccc1C(=O)NC1CC1 was < 1 nM

Lab note: measured IC50 of CNC(=O)c1ccc(-c2cnc3c(NCC4CCOCC4)cc(Oc4ccc(OC)cc4F)nn23)cc1C was < 1 nM

Lab note: measured IC50 of Cc1cc(-c2cnc3c(NCCCC(F)(F)F)cc(Nc4ccc(F)c(F)c4)nn23)ccc1C(=O)NC1CC1 was 1.1 nM

Lab note: measured IC50 of CC(C)CNc1cc(-c2cnc3ccccc3c2)nn2c(-c3ccc(C(=O)NC4CC4)cc3)cnc12 was 7 nM

Lab note: measured IC50 of Cc1cc(-c2cnc3c(NCCC(F)(F)F)cc(S(=O)(=O)c4ccccc4)nn23)ccc1C(=O)NC1CC1 was < 1 nM
